Recorded melting point for the following compounds

Some compounds with known melting point results, for comparison:
- Compound: "Clc1ccc2nc(N3CCN(c4ncc(Br)cn4)CC3)nc(Nc3cc(C4CC4)[nH]n3)c2c1 [Compound 9c]"
  melting point: "280.6 to 282.7 °C"
- Compound: "Clc1ccc2nc(N3CCN(c4ncccn4)CC3)nc(Nc3cc(C4CC4)[nH]n3)c2c1 [Compound 9a]"
  melting point: "249.3 to 250.5 °C"
- Compound: "Clc1cccc(N2CCN(c3nc(Nc4cc(C5CC5)[nH]n4)c4cc(Cl)ccc4n3)CC2)c1 [Compound 7f]"
  melting point: "229.9 to 232.6 °C"

INPUT: // fetch melting point given entry Fc1ccc(N2CCN(c3nc(Nc4cc(C5CC5)[nH]n4)c4cc(Cl)ccc4n3)CC2)cc1 [Compound 7i]
OUTPUT: 228.8 to 231 °C

INPUT: // fetch melting point given entry Cc1ccc(N2CCN(c3nc(Nc4cc(C5CC5)[nH]n4)c4cc(Cl)ccc4n3)CC2)cc1 [Compound 7b]
OUTPUT: 204.9 to 207.5 °C

INPUT: // fetch melting point given entry COc1ccnc(N2CCN(c3nc(Nc4cc(C5CC5)[nH]n4)c4cc(Cl)ccc4n3)CC2)c1 [Compound 8b]
OUTPUT: 210.3 to 211.6 °C

INPUT: // fetch melting point given entry Clc1ccc2nc(N3CCN(c4ccc(Br)cn4)CC3)nc(Nc3cc(C4CC4)[nH]n3)c2c1 [Compound 8d]
OUTPUT: 270.5 to 272.8 °C

INPUT: // fetch melting point given entry Clc1ccc2nc(N3CCN(c4ccccn4)CC3)nc(Nc3cc(C4CC4)[nH]n3)c2c1 [Compound 8a]
OUTPUT: 184.4 to 186.7 °C

INPUT: // fetch melting point given entry Clc1ccc2nc(N3CCN(c4ccccc4)CC3)nc(Nc3cc(C4CC4)[nH]n3)c2c1 [Compound 7a]
OUTPUT: 239.5 to 240.8 °C

INPUT: // fetch melting point given entry Cc1cnc(N2CCN(c3nc(Nc4cc(C5CC5)[nH]n4)c4cc(Cl)ccc4n3)CC2)nc1 [Compound 9b]
OUTPUT: 262.8 to 264.7 °C

INPUT: // fetch melting point given entry Cc1ccc(N2CCN(c3nc(Nc4cc(C5CC5)[nH]n4)c4cc(Cl)ccc4n3)CC2)nc1 [Compound 8c]
OUTPUT: 263 to 265.4 °C

INPUT: // fetch melting point given entry Clc1ccc2nc(N3CCC(N4CCOCC4)CC3)nc(Nc3cc(C4CC4)[nH]n3)c2c1 [Compound 6b]
OUTPUT: 214.3 to 216.6 °C
